For each entry below, report its IC50 value.
Assay target: ERα (Estrogen Receptor α) (Homo sapiens)
Construct: gene ESR1; purified ERα supplied with the PolarScreen kit (Invitrogen); construct not described
Sequence (P03372 whole entry): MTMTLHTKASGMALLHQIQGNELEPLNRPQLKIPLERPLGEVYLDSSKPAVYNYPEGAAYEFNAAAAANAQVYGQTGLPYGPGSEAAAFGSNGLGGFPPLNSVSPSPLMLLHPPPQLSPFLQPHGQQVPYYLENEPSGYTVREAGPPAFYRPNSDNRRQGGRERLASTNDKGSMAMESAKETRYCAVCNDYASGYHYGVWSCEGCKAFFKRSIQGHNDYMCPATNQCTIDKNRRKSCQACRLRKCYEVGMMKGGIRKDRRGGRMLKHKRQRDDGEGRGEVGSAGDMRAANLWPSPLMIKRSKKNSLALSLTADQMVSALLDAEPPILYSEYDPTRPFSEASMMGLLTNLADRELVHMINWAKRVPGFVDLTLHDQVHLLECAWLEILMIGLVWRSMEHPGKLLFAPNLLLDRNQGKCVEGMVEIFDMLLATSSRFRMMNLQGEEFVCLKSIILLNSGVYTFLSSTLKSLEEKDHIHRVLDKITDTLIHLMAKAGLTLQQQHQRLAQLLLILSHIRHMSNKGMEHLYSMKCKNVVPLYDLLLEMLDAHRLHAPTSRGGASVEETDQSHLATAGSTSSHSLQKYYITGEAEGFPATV
Test summary: fluorescence polarization competition (PolarScreen)
Condition set: read-out: ERα Binding IC50 μM ^1
The response must be a number in µM with no trailing unit.

Query: Can you share its IC50? I mean this compound: O=c1c(C(c2ccccc2)n2ccnc2)coc2cc(O)ccc12 (racemic) [4b]
Result: 0.203

Query: Returns the measured IC50 for the input compound. Input: O=c1c(C(c2ccccc2)n2ccnc2)coc2ccccc12 (racemic) [3b]
Result: 0.31

Query: # input compound: O=c1c(C(c2ccc([N+](=O)[O-])cc2)n2ccnc2)coc2cc(O)ccc12 (racemic) [4a] ; wanted: its IC50
Result: 0.595

Query: Query (compound): CC/C(=C(\c1ccc(O)cc1)c1ccc(OCCNC)cc1)c1ccccc1 [Endoxifen] ; field requested: IC50
Result: 0.043

Values from paper PMC10096035
